The measurements presented in this section are drawn from ChEMBL document CHEMBL1201862.

Test system: NCI-H522
Method Summary: NCI tumour cell line growth inhibition, 48 h
The source made the active and inactive calls. Rule as the data show it: active = GI50 up to about 1.1 µM and inactive = higher.
Kindly supply the reported GI50 values for the records listed here.

Enquiry: Consider the molecule COc1ccc(Nc2nc3cc(C(F)(F)F)ccc3nc2-c2ccccc2)cc1OC . State its measured GI50.
Return: 30 µM (inactive)

Enquiry: Consider the molecule CC1CC2OC(=O)C(C)C2CC2(C)C(OC3OC(CO)C(O)C(O)C3O)OCCC12 (stereo not drawn) . State its measured GI50.
Return: > 100 µM (inactive)

Enquiry: Consider the molecule CC1(C)[C@H]2Cc3cc(-c4cc5c(cn4)[C@@H]4C[C@H]([C@@H]5[C@@H]5c6cc(-c7cc8c(cn7)[C@@H]7C[C@H](C8)C7(C)C)ncc6[C@@H]6C[C@H]5C6(C)C)C4(C)C)ncc3[C@@H]1C2 . State its measured GI50.
Return: > 100 µM (inactive)

Enquiry: Consider the molecule O=C1N[C@@H]2O[C@H](CNC(=O)c3cc(Br)c[nH]3)C[C@]2(O)N1.O=C1N[C@H]2O[C@H](CNC(=O)c3cc(Br)c[nH]3)C[C@@]2(O)N1 . State its measured GI50.
Return: > 100 µM (inactive)

Enquiry: Consider the molecule C(=C\N1CCCCC1)/c1nnnn1-c1ccccc1 . State its measured GI50.
Return: 47 µM (inactive)

Enquiry: Consider the molecule N#CC1(N2CCCC2)CCC2(CC1)OCCO2 . State its measured GI50.
Return: > 100 µM (inactive)

Enquiry: Consider the molecule CN(C(=O)[C@@H](NC(=O)OC(C)(C)C)c1ccccc1)[C@H]1CCCC[C@@H]1N1CCCC1 . State its measured GI50.
Return: > 100 µM (inactive)

Enquiry: Consider the molecule O=C(O)CCNCCCCNCCC(=O)O . State its measured GI50.
Return: > 100 µM (inactive)

* * *

System: ACHN
Method Summary: NCI tumour cell line growth inhibition, 48 h
The source made the active and inactive calls. No stated cut-off is given here; in the data, active = GI50 up to about 1.1 µM and inactive = higher.
Quantity: GI50

Enquiry: Consider the compound Cc1ccc(NC(=O)NC(=O)c2ccc([N+](=O)[O-])cc2[N+](=O)[O-])cc1Oc1ncc(Cl)cn1 . State its measured GI50.
Return: 1.33 µM (inactive)

Enquiry: Consider the compound CC(C)S(=O)(=O)n1c(N)nc2ccc(/C(=N/O)c3ccccc3)cc21 . State its measured GI50.
Return: 13.7 µM (inactive)

Enquiry: Consider the compound Nc1n[n+]([O-])c2cnccc2[n+]1[O-] . State its measured GI50.
Return: 50.9 µM (inactive)

Enquiry: Consider the compound O=C(Cn1nc(Br)c(Br)c1Br)c1ccccc1 . State its measured GI50.
Return: 27.3 µM (inactive)

Enquiry: Consider the compound O=C(/N=N/c1cccc(Cl)c1)NNc1cccc(Cl)c1 . State its measured GI50.
Return: 9.25 µM (inactive)

Enquiry: Consider the compound NC1=Nc2ncccc2C(=O)NN1 . State its measured GI50.
Return: > 10 µM (inactive)

* * *

Test system: A498
Method Summary: NCI tumour cell line growth inhibition, 48 h
Calls of active or inactive are those of the source. No stated cut-off is given here; in the data, active = GI50 up to about 1.1 µM and inactive = higher.
Your reply should match one of these outcome classes. yes (1) (active), no (0) (inactive)

Enquiry: // param item: N#Cc1nc(-c2cccc(-c3nc(C#N)c(N)o3)n2)oc1N ; yields the recorded call
Return: no (0)

Enquiry: // param item: CC(C)(C)N(Cc1ccc2c(c1)OCO2)C(=O)/C=C\Sc1ccccc1 ; yields the recorded call
Return: no (0)

Enquiry: // param item: C[C@]12CC[C@H]3[C@@H](CC=C4C[C@@H](O)CC[C@@]43C)[C@@H]1C/C(=C\c1ccc([N+](=O)[O-])cc1)[C@@H]2O ; yields the recorded call
Return: no (0)

Enquiry: // param item: CC(=O)OC1C2CCC3C(C)(O)C4CC(O)C(C)(C)C4(O)C(O)CC13CC2(C)O (stereo not given) ; yields the recorded call
Return: no (0)

Enquiry: // param item: CCCc1c(-c2ccccc2)[nH]c2ccccc2c1=O ; yields the recorded call
Return: no (0)

Enquiry: // param item: C[C@]12C[C@H](c3ccccc3)Nc3ccccc3N1C(c1ccccc1)=NO2 ; yields the recorded call
Return: no (0)

Enquiry: // param item: CC(=O)OC1CCn2c1nc1c2C(=O)C=C(N2CC2)C1=O (stereo not given) ; yields the recorded call
Return: yes (1)

Enquiry: // param item: N#Cc1ccc(-n2c3ccccc3c3ccc4c(c32)C(=O)C=CC4=O)cc1 ; yields the recorded call
Return: no (0)

Enquiry: // param item: O=C1c2c(Br)sc(Br)c2[C@@H](Cl)[C@H]1Cl ; yields the recorded call
Return: no (0)

Enquiry: // param item: CCOC1OC(CO[Si](C)(C)C(C)(C)C)C(O)CC1n1ccc(=O)[nH]c1=O (stereo not given) ; yields the recorded call
Return: no (0)

* * *

Kindly supply the reported GI50 values for the records listed here.
Tested on: HOP-62
Method Summary: NCI tumour cell line growth inhibition, 48 h
The source made the active and inactive calls. Rule as the data show it: active = GI50 up to about 1.1 µM and inactive = higher.

Enquiry: Quote HOP-62 GI50 for entry CC(CN(C)C)C(=O)c1ccccc1C(=O)O (centres undefined) .
Return: 20.6 µM (inactive)

Enquiry: Quote HOP-62 GI50 for entry Nc1nc(Cl)cc(NCC2(CO)CCCC2)n1 .
Return: > 100 µM (inactive)

Enquiry: Quote HOP-62 GI50 for entry O=C(O)CCNCCCCNCCC(=O)O .
Return: > 100 µM (inactive)

Enquiry: Quote HOP-62 GI50 for entry CN(C)CCCn1c(Cc2ccc(Cl)cc2)nc2cc(C(F)(F)F)ccc21 .
Return: 15.2 µM (inactive)

Enquiry: Quote HOP-62 GI50 for entry CC(C)(C)CC(C)(C)c1cc2c(O)c(c1)Cc1cc(C(C)(C)CC(C)(C)C)cc(c1O)Cc1cc(C(C)(C)CC(C)(C)C)cc(c1O)Cc1cc(C(C)(C)CC(C)(C)C)cc(c1O)Cc1cc(C(C)(C)CC(C)(C)C)cc(c1O)Cc1cc(C(C)(C)CC(C)(C)C)cc(c1O)C2 .
Return: > 100 µM (inactive)

Enquiry: Quote HOP-62 GI50 for entry COC(=O)C1CC2(CC3=C1CCCC3)OCCO2 (centres undefined) .
Return: > 100 µM (inactive)

Enquiry: Quote HOP-62 GI50 for entry COc1ccc(C=C(c2ccc(OCc3ccccc3)cc2)c2ccc(OCc3ccccc3)cc2)cc1 .
Return: > 100 µM (inactive)

Enquiry: Quote HOP-62 GI50 for entry COc1cc(CC(=O)O)c([N+](=O)[O-])cc1OC .
Return: > 100 µM (inactive)

Enquiry: Quote HOP-62 GI50 for entry COC12OC3(C4OC41)C(C(=O)O[C@H]3CO[Si](C)(C)C(C)(C)C)C2S(=O)(=O)c1ccccc1 (some centres undefined) .
Return: > 4.65 µM (inactive)

* * *

Test system: UACC-62
Method Summary: NCI tumour cell line growth inhibition, 48 h
Activity calls are given as the source filed them. Rule as the data show it: active = GI50 up to about 1.1 µM and inactive = higher.
Kindly supply the reported GI50 values for the records listed here.

Enquiry: Consider the compound CS(=O)(=O)Nc1ccc2c(c1)oc(=O)c1ccccc12 . State its measured GI50.
Return: 65 µM (inactive)

Enquiry: Consider the compound C[C@]12CC[C@H](O)CC1=CC[C@@H]1C2CC[C@]2(C)Nc3c(cnn3-c3ccccc3)CC12 (stereo partly specified) . State its measured GI50.
Return: 4.14 µM (inactive)

Enquiry: Consider the compound Clc1nc2n(c1/C=C/c1cccs1)CCS2 . State its measured GI50.
Return: 37.3 µM (inactive)

Enquiry: Consider the compound O=C(O)CC(NC(=O)C(F)(F)F)C(=O)NC1Cc2ccccc2OC1=O (stereo unspecified) . State its measured GI50.
Return: > 100 µM (inactive)

Enquiry: Consider the compound CCC(=O)Nc1ccc(/N=C/c2cccc(Oc3ccccc3)c2)cc1 . State its measured GI50.
Return: 95.7 µM (inactive)

Enquiry: Consider the compound COc1cc2c(cc1OC)C1Cc3cc(OC)c(OC)cc3C(C2)O1 . State its measured GI50.
Return: > 100 µM (inactive)

* * *

System: SF-295
Method Summary: NCI tumour cell line growth inhibition, 48 h
The source made the active and inactive calls. Rule as the data show it: active = GI50 up to about 1.1 µM and inactive = higher.
Kindly supply the reported GI50 values for the records listed here.

Enquiry: Consider the compound COc1cc(=O)n2c3ccccc3n(C)c2c1C#N . State its measured GI50.
Return: 22.6 µM (inactive)

Enquiry: Consider the compound N#Cc1nc(-c2cccc(-c3nc(C#N)c(N)o3)n2)oc1N . State its measured GI50.
Return: > 100 µM (inactive)

Enquiry: Consider the compound Cn1c(-c2ccccc2)cc(-c2ccsc2)c1-c1ccsc1 . State its measured GI50.
Return: > 100 µM (inactive)

Enquiry: Consider the compound COC(=O)CSc1nc2[nH]c(SC)c(C(N)=O)c2c(=O)n1-c1ccccc1 . State its measured GI50.
Return: > 10 µM (inactive)

Enquiry: Consider the compound Cc1ccccc1C(CCCO)C(=O)O (stereo unspecified) . State its measured GI50.
Return: > 100 µM (inactive)

Enquiry: Consider the compound Cc1ccc(/C=N/Nc2cnccn2)s1 . State its measured GI50.
Return: > 100 µM (inactive)

Enquiry: Consider the compound C1=c2ccccc2=C2C(=C(c3ccccc3)C(c3ccccc3)=NN2c2ccccc2)S1 . State its measured GI50.
Return: > 100 µM (inactive)

Enquiry: Consider the compound C/C(=N\NS(=O)(=O)c1ccc(C)cc1)C(CN1CCCCC1)C(c1ccccc1)c1c(O)c2ccccc2oc1=O (stereo unspecified) . State its measured GI50.
Return: > 100 µM (inactive)

Enquiry: Consider the compound COc1cc(CC(=O)O)c([N+](=O)[O-])cc1OC . State its measured GI50.
Return: > 100 µM (inactive)

Enquiry: Consider the compound CCCCCC/C=C/CCCCCCCc1cccc(O)c1C(=O)O . State its measured GI50.
Return: > 100 µM (inactive)

Enquiry: Consider the compound C1=C(c2ccccc2)SC=C(c2ccccc2)S1 . State its measured GI50.
Return: 29.2 µM (inactive)
